Reference for the values: ChEMBL document CHEMBL1138631

Molecular target: Monoamine transporters; serotonin & dopamine (Rattus norvegicus) (UniProt P31652+P23977)
Sequence (P23977 whole entry, looked up): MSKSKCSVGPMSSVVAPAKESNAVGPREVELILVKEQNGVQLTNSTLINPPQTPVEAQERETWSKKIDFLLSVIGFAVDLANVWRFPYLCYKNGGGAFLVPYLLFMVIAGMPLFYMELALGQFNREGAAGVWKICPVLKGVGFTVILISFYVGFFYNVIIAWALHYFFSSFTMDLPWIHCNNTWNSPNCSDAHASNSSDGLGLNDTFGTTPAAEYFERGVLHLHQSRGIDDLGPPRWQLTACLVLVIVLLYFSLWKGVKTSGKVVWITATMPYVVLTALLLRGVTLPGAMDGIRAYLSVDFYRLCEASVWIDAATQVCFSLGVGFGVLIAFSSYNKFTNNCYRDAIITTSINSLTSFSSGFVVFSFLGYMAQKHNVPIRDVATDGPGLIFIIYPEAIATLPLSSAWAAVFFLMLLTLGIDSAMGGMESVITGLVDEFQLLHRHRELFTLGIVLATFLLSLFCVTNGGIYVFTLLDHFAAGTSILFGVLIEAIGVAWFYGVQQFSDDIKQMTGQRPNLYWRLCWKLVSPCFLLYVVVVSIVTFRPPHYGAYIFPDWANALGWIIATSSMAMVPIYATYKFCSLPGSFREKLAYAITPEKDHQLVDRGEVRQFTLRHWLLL
Sequence (P31652 whole entry, looked up): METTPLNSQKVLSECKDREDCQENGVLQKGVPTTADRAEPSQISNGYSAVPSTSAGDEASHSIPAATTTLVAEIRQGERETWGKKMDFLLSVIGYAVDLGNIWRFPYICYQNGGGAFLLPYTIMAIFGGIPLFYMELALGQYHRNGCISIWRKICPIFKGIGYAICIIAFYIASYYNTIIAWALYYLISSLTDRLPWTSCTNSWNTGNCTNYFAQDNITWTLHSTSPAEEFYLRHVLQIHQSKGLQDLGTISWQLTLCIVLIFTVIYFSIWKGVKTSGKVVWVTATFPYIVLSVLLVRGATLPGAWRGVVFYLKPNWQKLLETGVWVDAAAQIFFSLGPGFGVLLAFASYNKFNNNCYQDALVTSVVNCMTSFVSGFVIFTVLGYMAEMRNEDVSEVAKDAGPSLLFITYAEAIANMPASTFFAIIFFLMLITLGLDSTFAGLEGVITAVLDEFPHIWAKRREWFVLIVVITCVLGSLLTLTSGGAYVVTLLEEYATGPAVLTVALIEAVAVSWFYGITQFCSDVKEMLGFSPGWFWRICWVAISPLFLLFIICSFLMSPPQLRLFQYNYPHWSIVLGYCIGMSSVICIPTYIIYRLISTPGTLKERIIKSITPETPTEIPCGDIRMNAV
Experiment: Ratio of Ki for dopamine and serotonin transporters
Assay type: protein assay
endpoint label: Selectivity
Form field (numeric): enter value without unit.

INSERT INTO assay_data (compound, value_reported) VALUES
  ('O=C(OCCF)C1C2CCC(CC1c1ccc(Br)cc1)N2 (stereo unspecified)', 0.42),
  ('O=C(OCCF)C1C2CCC(CC1c1ccc(I)cc1)N2 (stereo unspecified)', 0.21),
  ('CN1C2CCC1C(C(=O)OCCF)C(c1ccc(I)cc1)C2 (stereo unspecified)', 4.3),
  ('CN1C2CCC1C(C(=O)OCCCF)C(c1ccc(Br)cc1)C2 (stereo unspecified)', 1.5),
  ('COC(=O)C1C(c2ccc(Br)cc2)CC2CCC1N2CCCF (stereo unspecified)', 10.9);

Now for the compound whose Selectivity we want.
Form field, Selectivity with Monoamine transporters; serotonin & dopamine (Rattus norvegicus) (UniProt P31652+P23977), item COC(=O)C1C(c2ccc(Br)cc2)CC2CCC1N2C (stereo unspecified) : 0.06

----------
Recorded Selectivity for the following compounds
Target: Monoamine transporters; serotonin & dopamine (Rattus norvegicus) (UniProt P31652+P23977)
Assay: Ratio of Ki for dopamine and serotonin transporters
Type: protein assay

Recorded Selectivity, per entry:
INSERT INTO measurements (compound, endpoint_label, value_reported) VALUES
  ('O=C(OCCCF)C1C2CCC(CC1c1ccc(Br)cc1)N2 (stereo not given)', 'Selectivity', 0.42),
  ('CN1C2CCC1C(C(=O)NCCF)C(c1ccc(Br)cc1)C2 (stereo not given)', 'Selectivity', 1.51);

response.value for O=C(OCCF)C1C(c2ccc(Br)cc2)CC2CCC1N2CCCF (stereo not given) (field: Selectivity) = 1.72

response.value for CN1C2CCC1C(C(=O)NCCF)C(c1ccc(I)cc1)C2 (stereo not given) (field: Selectivity) = 0.69

response.value for CN1C2CCC1C(C(=O)OCCF)C(c1ccc(Br)cc1)C2 (stereo not given) (field: Selectivity) = 2.19

----------
Recorded pKi for the following molecules
Biological target: Sodium-dependent serotonin transporter (Rattus norvegicus)
Test: Displacement of [3H]cyanoimiprimine from serotonin transporter of rat cerebral cortical homogenate
In simple prose, pKi is minus the logarithm base ten of a concentration in moles per litre.

response.value for COC(=O)C1C(c2ccc(Br)cc2)CC2CCC1N2C (stereo unspecified) (field: pKi) = 8.31

response.value for O=C(OCCF)C1C2CCC(CC1c1ccc(I)cc1)N2 (stereo unspecified) (field: pKi) = 9.74

response.value for O=C(OCCF)C1C2CCC(CC1c1ccc(Br)cc1)N2 (stereo unspecified) (field: pKi) = 9.62

response.value for CN1C2CCC1C(C(=O)OCCF)C(c1ccc(I)cc1)C2 (stereo unspecified) (field: pKi) = 8.40

response.value for CN1C2CCC1C(C(=O)OCCF)C(c1ccc(Br)cc1)C2 (stereo unspecified) (field: pKi) = 8.29

response.value for COC(=O)C1C2CCC(CC1c1ccc(Br)cc1)N2 (stereo unspecified) (field: pKi) = 9.02

response.value for CN1C2CCC1C(C(=O)NCCF)C(c1ccc(I)cc1)C2 (stereo unspecified) (field: pKi) = 7.51

----------
Target: Sodium-dependent dopamine transporter (Rattus norvegicus)
pKi: −log10 of the molar value.
Kind request: treat 9 as inclusive, so pKi at 9 or higher is Met, anything lower is Not met.

Record excerpt, results attached:
INSERT INTO measurements (compound, answer_label) VALUES
  ('CN1C2CCC1C(C(=O)NCCF)C(c1ccc(Br)cc1)C2 (stereo not given)', 'Not met'),
  ('CN1C2CCC1C(C(=O)OCCCF)C(c1ccc(Br)cc1)C2 (stereo not given)', 'Not met');

Assess whether reported pKi for CN1C2CCC1C(C(=O)OCCF)C(c1ccc(Br)cc1)C2 (stereo not given) sits at 9 or higher.
Not met

Assess whether reported pKi for CN1C2CCC1C(C(=O)NCCF)C(c1ccc(I)cc1)C2 (stereo not given) sits at 9 or higher.
Not met
